tgt: JAK1 (recombinant purified GST-tagged catalytic domain) (Homo sapiens (Human))
run description: biochemical
Assignment: determine reported pIC50 for the given molecules.
pIC50 is defined as minus the log10 of a concentration measured in mol/L.

Could you please provide reported pIC50 for CC(=O)c1ccc(Nc2nn([C@H]3CC[C@@H](N4CCC4)C[C@@H]3C#N)cc2C(N)=O)cc1 (single isomer, unassigned) ? Thanks!
9.40

Consider the molecule N#C[C@H]1CCCC[C@@H]1n1cc(C(N)=O)c(Nc2ccc(Cl)cc2)n1 (single isomer, unassigned) [Example 17-108] and give its recorded pIC50.
8.10

Dear colleague, please send me the reported pIC50 for C[C@H]1C[C@H](C)N1[C@H]1CC[C@H](n2cc(C(N)=O)c(Nc3ccc(C(F)(F)F)cc3)n2)[C@@H](C#N)C1 (single isomer, unassigned) when you can.
8.52

State its pIC50 for this molecule: N#C[C@H]1C[C@@H](NC(C2CC2)C2CC2)CC[C@@H]1n1cc(C(N)=O)c(Nc2ccc(S(=O)(=O)C(F)(F)F)cc2)n1 (single isomer, unassigned)
9.22

Quote pIC50 reported for N#C[C@H]1CCCC[C@@H]1n1cc(C(N)=O)c(Nc2ccc(Br)cc2)n1 (single isomer, unassigned) please.
9.00

Note pIC50 for the molecule shown: N#C[C@H]1C[C@@H](NCC2CC2)CC[C@@H]1n1cc(C(N)=O)c(Nc2ccc(C(F)(F)F)cc2)n1 (single isomer, unassigned)
8.52

Supply recorded pIC50 for N#C[C@H]1C[C@H](O)CC[C@@H]1n1cc(C(N)=O)c(Nc2ccc(C(F)(F)F)cc2)n1 (single isomer, unassigned) here.
9.00

Output pIC50 of N#C[C@H]1C[C@H](NCC2(O)CC2)CC[C@@H]1n1cc(C(N)=O)c(Nc2ccc(C(F)(F)F)cc2)n1 (single isomer, unassigned)
9.00

Query pIC50 for CC1(N[C@@H]2CCC(n3cc(C(N)=O)c(Nc4ccc(Cl)cc4)n3)[C@@H](C#N)C2)CC1 (single isomer, unassigned)
7.92

Give a short answer stating reported pIC50 for N#C[C@H]1CCC[C@@H](O)C1n1cc(C(N)=O)c(Nc2ccccc2)n1 (mixture of isomers) .
6.43

Note down pIC50 recorded for N#Cc1ccc(Nc2nn([C@H]3CCCC[C@@H]3C#N)cc2C(N)=O)cc1 (racemic)
9.00

Return pIC50 (reported value) for this molecule: N#C[C@H]1CC[C@H](O)CC1n1cc(C(N)=O)c(Nc2ccccc2)n1 (mixture of isomers)
7.82

----------
tgt: JAK1 (recombinant purified GST-tagged catalytic domain) (Homo sapiens (Human))
Exercise: state measured IC50 for each of the compounds provided.
Please reply with the bare figure in nM and do not write the unit itself.

Please report IC50 with JAK1 (recombinant purified GST-tagged catalytic domain) (Homo sapiens (Human)) for item CC(C)(C)OC(=O)C1CCC(n2cc(C(N)=O)c(Nc3ccc(S(=O)(=O)C(F)(F)F)cc3)n2)C(C#N)C1 (stereo not drawn) [Example 17-2] .
23

Give measured IC50 for N#C[C@H]1C[C@@H]([N+]2(CC3CC3)CCC2)CC[C@@H]1n1cc(C(N)=O)c(Nc2ccc(Cl)cc2)n1 [Example 31-5] (JAK1 (recombinant purified GST-tagged catalytic domain) (Homo sapiens (Human))).
0.85

Return reported IC50 for target or system JAK1 (recombinant purified GST-tagged catalytic domain) (Homo sapiens (Human)), item CN(C)[C@H]1CC[C@H](n2cc(C(N)=O)c(Nc3ccc(S(=O)(=O)C(F)(F)F)cc3)n2)[C@@H](C#N)C1 (mixture of isomers) [Example 27-1] .
0.2

State IC50 (JAK1 (recombinant purified GST-tagged catalytic domain) (Homo sapiens (Human))) of CS(=O)(=O)c1ccc(Nc2nn([C@H]3CCC[C@@H]3C#N)cc2C(N)=O)cc1 (mixture of isomers) [Example 1-4] .
0.5

Report IC50 under test system JAK1 (recombinant purified GST-tagged catalytic domain) (Homo sapiens (Human)) for CS(=O)(=O)N[C@H]1CC[C@H](n2cc(C(N)=O)c(Nc3ccc(F)cc3)n2)[C@@H](C#N)C1 (mixture of isomers) [Example 38-1] .
2

Report value only: IC50, JAK1 (recombinant purified GST-tagged catalytic domain) (Homo sapiens (Human)), COCC(C)N(C)[C@H]1CCC(n2cc(C(N)=O)c(Nc3ccc(Cl)cc3)n2)[C@@H](C#N)C1 (single isomer, unassigned) [Example 28-241]
2

----------
tgt: JAK1 (recombinant purified GST-tagged catalytic domain) (Homo sapiens (Human), UniProt P23458)
Sequence (P23458 875-1153): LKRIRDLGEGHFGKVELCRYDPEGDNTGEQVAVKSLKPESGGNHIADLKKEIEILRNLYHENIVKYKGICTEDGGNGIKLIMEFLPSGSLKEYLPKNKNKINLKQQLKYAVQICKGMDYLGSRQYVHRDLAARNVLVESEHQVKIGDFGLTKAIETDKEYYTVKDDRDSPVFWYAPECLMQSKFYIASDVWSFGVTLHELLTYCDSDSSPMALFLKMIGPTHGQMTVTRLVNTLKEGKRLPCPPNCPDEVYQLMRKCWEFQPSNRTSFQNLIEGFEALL
run description: biochemical
Lab note: compare IC50 with 0.5 nM, writing 1.0 if less and 0.0 if equal or more.

Threshold test, IC50 < 0.5 nM: N#C[C@H]1C[C@H](N(CC2CC2)CC2CC2)CC[C@@H]1n1cc(C(N)=O)c(Nc2ccc(C(F)(F)F)cc2)n1 (single isomer, unassigned)
0.0

Lab note: IC50 threshold 0.5 nM. Does this compound come in strictly under it? N#C[C@H]1C[C@@H](N2CCC2)CC[C@@H]1n1cc(C(N)=O)c(Nc2ccc(OC(F)F)cc2)n1 (single isomer, unassigned) [Example 28-108]
0.0

Confirm or reject: IC50 of CC1(O)CN(C(=O)[C@@H]2CC[C@@H](n3cc(C(N)=O)c(Nc4ccc(Cl)cc4)n3)[C@H](C#N)C2)C1 (single isomer, unassigned) lies strictly below 0.5 nM
0.0

Given the entry CN(C)[C@H]1CC[C@H](n2cc(C(N)=O)c(Nc3ccc(OC(F)F)cc3)n2)[C@@H](C#N)C1 (single isomer, unassigned) , would its reported IC50 be below 0.5 nM?
1.0

Bench note: check whether N#C[C@H]1CC(NCCO)CCC1n1cc(C(N)=O)c(Nc2ccc(S(=O)(=O)C(F)(F)F)cc2)n1 (mixture of isomers) shows IC50 below 0.5 nM
1.0

----------
For each of the compounds below, state its IC50.
tgt: JAK1 (recombinant purified GST-tagged catalytic domain) (Homo sapiens (Human))
run description: biochemical
Give just the number in nM; leave the unit off.

Fill in IC50 for C=C[C@@]1(O)CC[C@H](n2cc(C(N)=O)c(Nc3ccc(Cl)cc3)n2)[C@@H](C#N)C1 (single isomer, unassigned) [Example 32-16] tested with JAK1 (recombinant purified GST-tagged catalytic domain) (Homo sapiens (Human)).
0.85

Consider the compound CC1(O)CN([C@@H]2CC[C@H](n3cc(C(N)=O)c(Nc4ccc(C(F)(F)F)cc4)n3)[C@@H](C#N)C2)C1 (single isomer, unassigned) [Example 28-199] tested on JAK1 (recombinant purified GST-tagged catalytic domain) (Homo sapiens (Human)); state its IC50.
0.3

GET IC50 | system: JAK1 (recombinant purified GST-tagged catalytic domain) (Homo sapiens (Human)) | item: CC1(N[C@H]2CCC(n3cc(C(N)=O)c(Nc4ccccc4)n3)[C@@H](C#N)C2)COC1 (single isomer, unassigned) [Example 28-230];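 also: biochemical assay with HTRF read-out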
4

----------
tgt: JAK2 (recombinant purified GST-tagged catalytic domain) (Homo sapiens (Human))
run description: biochemical
observed property: IC50 (nM)
Only the number, expressed in nM, is required.

Quick one: give measured IC50 for N#C[C@H]1CCC[C@H](O)C1n1cc(C(N)=O)c(Nc2ccccc2)n1 (mixture of isomers) [Example 2-7]
320

Read the entry N#Cc1ncc(Nc2nn([C@H]3CCCC[C@@H]3C#N)cc2C(N)=O)cc1F (single isomer, unassigned) [Example 17-79] and write its reported IC50.
40

Quick one: give measured IC50 for Cc1cccc(C)c1NS(=O)(=O)c1ccc(Nc2nn([C@H]3CCCC[C@@H]3C#N)cc2C(N)=O)cc1 (single isomer, unassigned) [Example 17-88]
9

# return recorded IC50 for entry N#C[C@H]1CCCC[C@@H]1n1cc(C(N)=O)c(Nc2ccc(Cl)cc2)n1 (racemic) [Example 17-104]
25

----------
Assignment: determine reported pIC50 for the given compounds.
tgt: JAK2 (recombinant purified GST-tagged catalytic domain) (Homo sapiens (Human), UniProt O60674)
Sequence (O60674 849-1124): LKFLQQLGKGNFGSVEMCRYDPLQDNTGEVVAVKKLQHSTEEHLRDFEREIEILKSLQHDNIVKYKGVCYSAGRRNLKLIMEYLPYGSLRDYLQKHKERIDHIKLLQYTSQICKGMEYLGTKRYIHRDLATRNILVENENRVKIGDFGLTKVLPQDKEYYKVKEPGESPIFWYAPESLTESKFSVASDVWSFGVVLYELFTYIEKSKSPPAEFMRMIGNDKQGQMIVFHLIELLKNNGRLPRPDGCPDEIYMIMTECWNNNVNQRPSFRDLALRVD
run description: biochemical
Units for pIC50: none; it is -log10 of a concentration expressed in mol/L.

# return recorded pIC50 for entry N#C[C@H]1C[C@H](OCC2CC2)CC[C@@H]1n1cc(C(N)=O)c(Nc2ccc([C@H](O)C(F)(F)F)cc2)n1 (single isomer, unassigned) [Example 26-7]
8.05

// Input: N#C[C@H]1C[C@H](N2CCC2)CC[C@@H]1n1cc(C(N)=O)c(Nc2ccc(OC(F)(F)F)cc2)n1 (single isomer, unassigned) [Example 28-70] . Output its pIC50 only.
7.40

Give a short answer stating reported pIC50 for CC(C)(C)OC(=O)NC1CC[C@H](C#N)C(n2cc(C(N)=O)c(Nc3ccc(F)cc3)n2)C1 (mixture of isomers) [Example 11-3] .
7.31

----------
tgt: JAK1 (recombinant purified GST-tagged catalytic domain) (Homo sapiens (Human), UniProt P23458)
run description: biochemical
Assign IC50 to each entry below.
Give the value, in units of nM, as a plain number.

Could you please provide reported IC50 for N#C[C@H]1C[C@H](O)CC[C@@H]1n1cc(C(N)=O)c(Nc2ccc(Cl)c(Cl)c2)n1 (single isomer, unassigned) ? Thanks!
3

Please give the documented IC50 of N#C[C@H]1C[C@@H](N2C[C@@H]3[C@@H](CO)[C@@H]3C2)CC[C@@H]1n1cc(C(N)=O)c(Nc2ccc(C(F)(F)F)cc2)n1 (single isomer, unassigned)
0.6

Please look at this compound and report its IC50: CCNC(=O)O[C@@H]1CCC(n2cc(C(N)=O)c(Nc3ccc(F)cc3)n2)[C@@H](C#N)C1 (mixture of isomers)
0.85

Please give the documented IC50 of N#C[C@H]1CCCC[C@@H]1n1cc(C(N)=O)c(Nc2cnc3cc(F)ccc3c2)n1 (single isomer, unassigned)
2

Read the entry COCC(C)N[C@H]1CCC(n2cc(C(N)=O)c(Nc3ccc(Cl)cc3)n2)[C@@H](C#N)C1 (single isomer, unassigned) [Example 28-237] and write its reported IC50.
1

Identify measured IC50 associated with N#C[C@@H]1C[C@H](C(=O)N[C@@H](C2CC2)C(F)(F)F)CC[C@H]1n1cc(C(N)=O)c(Nc2ccc(Cl)cc2)n1 (single isomer, unassigned)
9

Let me know recorded IC50 for N#C[C@@H]1CCCC[C@H]1n1cc(C(N)=O)c(Nc2ccc3c(c2)CCS3(=O)=O)n1 (single isomer, unassigned) , thanks.
2

Supply reported IC50 belonging to this compound: CN[C@H]1CCC(n2cc(C(N)=O)c(Nc3ccc(F)cc3)n2)[C@@H](C#N)C1 (mixture of isomers)
1

Respond only with IC50 recorded for N#C[C@H]1C[C@H](N2CC3(CCC3)C2)CC[C@@H]1n1cc(C(N)=O)c(Nc2ccc(C(F)(F)F)cc2)n1 (single isomer, unassigned)
0.6

Given Cn1cc(-c2cc(Nc3nn([C@H]4CCCC[C@@H]4C#N)cc3C(N)=O)ccn2)cn1 (racemic) , respond with its IC50.
3

Specify IC50 for N#C[C@H]1C[C@@H](N2CC(F)C2)CC[C@@H]1n1cc(C(N)=O)c(Nc2ccc(S(=O)(=O)C(F)(F)F)cc2)n1 (single isomer, unassigned) and stop.
1

Report measured IC50; entry is N#C[C@H]1C[C@H](OC(=O)NC2CCCCC2)CCC1n1cc(C(N)=O)c(Nc2ccc(F)cc2)n1 (mixture of isomers)
7
